Data provenance is the supplement of paper PMC4862054.

Tested on: MDA-MB-468
test.method.notes: normalised response (% of control), CellTox Green; higher = less cell death (100 = DMSO, 0 = benzethonium chloride kill control)
condition.notes: incubation time: 72 h
measurement.type: normalised response

Example entries and their recorded answers appear below.
# compound, normalised response
records = [
    ("CCc1c2c(nc3ccc(OC(=O)N4CCC(N5CCCCC5)CC4)cc13)-c1cc3c(c(=O)n1C2)COC(=O)[C@]3(O)CC [Irinotecan] (10000 nM)", "119%"),
    ("COc1cc2c(NC3CCN(C(C)C)CC3)nc(N3CCC(F)(F)CC3)nc2cc1OCCCN1CCCC1 [UNC0642] (10000 nM)", "-31.3%"),
    ("CCc1c2c(nc3ccc(OC(=O)N4CCC(N5CCCCC5)CC4)cc13)-c1cc3c(c(=O)n1C2)COC(=O)[C@]3(O)CC [Irinotecan] (100 nM)", "99.2%"),
]

[Q] For MDA-MB-468, provide normalised response of CCc1c2c(nc3ccc(OC(=O)N4CCC(N5CCCCC5)CC4)cc13)-c1cc3c(c(=O)n1C2)COC(=O)[C@]3(O)CC [Irinotecan] (1000 nM) please.
[A] 141%

[Q] For MDA-MB-468, provide normalised response of CNC(=O)c1ccc(N2C(=S)N(c3ccc(C#N)c(C(F)(F)F)c3)C(=O)C2(C)C)cc1F [Enzalutamide] (100 nM) please.
[A] 126%

[Q] For MDA-MB-468, provide normalised response of Cc1[nH]c2ccccc2c1CCNCc1ccc(/C=C/C(=O)NO)cc1 [Panobinostat] (1000 nM) please.
[A] -0.17%

[Q] For MDA-MB-468, provide normalised response of NC(=O)c1ccc(I)c([N+](=O)[O-])c1 [Iniparib] (100 nM) please.
[A] 128%

[Q] For MDA-MB-468, provide normalised response of S=P(N1CC1)(N1CC1)N1CC1 [Thio-TEPA] (500 nM) please.
[A] 69%

[Q] For MDA-MB-468, provide normalised response of O=C(Nc1cccnc1)N1CCC(Cc2cccc(Oc3ccc(C(F)(F)F)cn3)c2)CC1 [PF-3845] (10000 nM) please.
[A] 172%

[Q] For MDA-MB-468, provide normalised response of O=C(Nc1cccnc1)N1CCC(Cc2cccc(Oc3ccc(C(F)(F)F)cn3)c2)CC1 [PF-3845] (100 nM) please.
[A] 107%

[Q] For MDA-MB-468, provide normalised response of Cc1ccc(NC(=O)c2ccc(CN3CCN(C)CC3)cc2)cc1Nc1nc(-c2cccnc2)cs1 [Masitinib] (100 nM) please.
[A] 116%

[Q] For MDA-MB-468, provide normalised response of CNC(=O)c1ccc(N2C(=S)N(c3ccc(C#N)c(C(F)(F)F)c3)C(=O)C23CCC3)cc1F [RD162] (1000 nM) please.
[A] 96.5%

[Q] For MDA-MB-468, provide normalised response of N#Cc1ccc(COC[C@H]2O[C@@H](n3c(NCc4ccc(Cl)c(Cl)c4)nc4c(N)ncnc43)[C@H](O)[C@@H]2O)cc1 (1000 nM) please.
[A] 143%

[Q] For MDA-MB-468, provide normalised response of O=P1(N(CCCl)CCCl)NCCCO1 (stereo unspecified) [Cyclophosphamide] (4000 nM) please.
[A] 100%

[Q] For MDA-MB-468, provide normalised response of Nc1cc(C(F)(F)F)c(-c2cc(N3CCOCC3)nc(N3CCOCC3)n2)cn1 [Buparlisib] (1000 nM) please.
[A] 165%

[Q] For MDA-MB-468, provide normalised response of C=C1C[C@@H]2[C@H](CC[C@]3(C)C(=O)CC[C@@H]23)[C@@]2(C)C=CC(=O)C=C12 [Exemestane] (1000 nM) please.
[A] 149%

[Q] For MDA-MB-468, provide normalised response of CCOC(=O)CCNc1cc(N2CCc3ccccc3CC2)nc(-c2ccccn2)n1 [GSK-J4] (100000 nM) please.
[A] -155%

[Q] For MDA-MB-468, provide normalised response of CNC(=O)c1cc(Oc2ccc(NC(=O)Nc3ccc(Cl)c(C(F)(F)F)c3)c(F)c2)ccn1 [Regorafenib] (100 nM) please.
[A] 135%
